# Test system: NCI-H226
# assay_protocol: NCI tumour cell line growth inhibition, 48 h
Activity calls are given as the source filed them. Rule as the data show it: active = GI50 up to about 1.1 µM and inactive = higher.
Assign a class; possible classes are yes (1) for active, no (0) for inactive

Identify the outcome logged in this assay for the molecule shown: COc1ccc(C(=O)C(C(=O)CCC(=O)Nc2cccc(Cl)c2)c2ccc(OC)cc2)cc1 (stereo not drawn)
no (0)

Identify the outcome logged in this assay for the molecule shown: COc1ccc(N2C(=O)C3c4[nH]c5ccc(C)cc5c4C4CCC(C)CC4C3C2=O)cc1 (stereo not drawn)
no (0)

Identify the outcome logged in this assay for the molecule shown: C[N+](C)([O-])C12CC3CC(CC(C3)C1)C2
no (0)

Identify the outcome logged in this assay for the molecule shown: O=C(O)C/C=C/CC(=O)O
no (0)

Identify the outcome logged in this assay for the molecule shown: CCCn1c(SCC)c2ccccc2c1-c1nc(F)nc(F)n1
no (0)

Identify the outcome logged in this assay for the molecule shown: CC(=O)Nc1[nH]c(C#N)nc1C#N
no (0)

Identify the outcome logged in this assay for the molecule shown: N#CC1=C(N)N(/N=C/c2ccco2)C(c2ccco2)C1(C#N)C#N (stereo not drawn)
no (0)

---

# Tested on: SR
# assay_protocol: NCI tumour cell line growth inhibition, 48 h
Active and inactive are the calls of the source. Cut-off read from the data, not from the text of the source: active = GI50 up to about 1.1 µM and inactive = higher.
GI50 reference

Consider the reported GI50 for these compounds:
O=C(O)C1=C(O)C(C(=O)O)C23CCCCCCCCCCC12C(C(=O)O)C(O)=C3C(=O)O (configuration not stated) | > 100 µM (inactive)
CCOC(=O)C1=C(C)NC(c2ccccc2)=C(C(=O)OCc2ccccc2)C1C#Cc1ccccc1 (configuration not stated) | > 100 µM (inactive)
C1CCN(c2nc(=[N+]3CCCCC3)ss2)CC1 | > 100 µM (inactive)
CC(=O)OC1C/C(C)=C/CCC(C)/C=C/C2(C)CCC(C(C)(C)O)C12 (configuration not stated) | 18.6 µM (inactive)
CCCCCCCC(=O)O[C@H]1[C@H]2[C@@H](CC1(C)C)C(=O)[C@]13O[C@H]1C(=O)[C@]1(CO1)[C@]23C | 2.07 µM (inactive)
CC(=O)N(CCc1ccccc1)C(C)(C#N)c1ccccc1 (configuration not stated) | > 100 µM (inactive)

In the following, a different compound is considered.
Would you mind telling me what GI50 value was observed for CC1=C2C(=O)OCC23C=COC3(C)O1 (configuration not stated) ?
8.38 µM (inactive)

---

GI50 reference
# System: HT-29
# assay_protocol: NCI tumour cell line growth inhibition, 48 h
Activity calls are given as the source filed them. No stated cut-off is given here; in the data, active = GI50 up to about 1.1 µM and inactive = higher.

CN(C)CCS/C(=N\c1ccccc1)N1CCCCC1 | 17.9 µM (inactive)
CCOc1ccc(/N=N/c2c(-c3ccccc3)nn(C(=O)CC(=O)Nc3ccccc3Cl)c2-c2ccccc2)cc1 | 33.7 µM (inactive)

In the following, a different molecule is considered.
Would you mind telling me what GI50 value was observed for O=c1[nH]c(=O)n(C2CC(O)C(CO)O2)cc1/N=N/NCCc1ccccc1 (stereo not drawn) ?
> 100 µM (inactive)

---

GI50 reference
# Tested on: SK-MEL-2
# assay_protocol: NCI tumour cell line growth inhibition, 48 h
Calls of active or inactive are those of the source. No stated cut-off is given here; in the data, active = GI50 up to about 1.1 µM and inactive = higher.

Consider the reported GI50 for these compounds:
CN(Cc1nc2c(N)nc(N)nc2nc1N)c1ccc(C(=O)NC(CCC(=O)O)C(=O)O)cc1 (configuration not stated) | > 100 µM (inactive)
C#CCn1c(=O)c2ccccc2n(CC#C)c1=O | > 10 µM (inactive)
Clc1ccc(-c2nnc3sc4nc5ccccc5c-4nn23)c(Cl)c1 | 30.6 µM (inactive)

Would you mind telling me what GI50 value was observed for CC(CS(=O)(=O)Cc1ccccc1)C(N)=O (configuration not stated) ?
> 100 µM (inactive)

Would you mind telling me what GI50 value was observed for CCCCCc1cc2cc3c(c(O)c2c(=O)[nH]1)C1(CCC3)C(=O)c2c(O)c3c(c(O)c2C1=O)C(=O)C(OC)=CC3=O (configuration not stated) ?
1.24 µM (inactive)

Would you mind telling me what GI50 value was observed for O=C(c1ccco1)N(C(=S)OC12CC3CC(CC(C3)C1)C2)c1ccccc1 ?
21.2 µM (inactive)

Would you mind telling me what GI50 value was observed for COC(=O)/C=C1/OC(c2ccccc2)=C(Cl)C1=O ?
21.3 µM (inactive)
